tested on: MOLT-4 leukemia; experiment: NCI tumour cell line growth inhibition, 48 h
reported_endpoint: TGI

Example results:
compound	result_value
O=C(c1ccccc1)C1OC12C(=O)Nc1c(Cl)cc(Cl)cc12 (configuration not stated)	31 µM
N#CC(=N)c1ncn(-c2ccc(N)cc2)c1N	> 100 µM
COC(=O)C(C(=O)OC)C1CCCC(=O)C1 (configuration not stated)	> 100 µM
COC(=O)c1cc(C(=CCC[C@H]2CC[C@@]3(C)C(CCC4C3CC[C@@]3(C)C4CC[C@@H]3C(C)CCCC(C)C)C2)c2cc(Cl)c(O)c(C(=O)OC)c2)cc(Cl)c1O (some centres not stated)	> 10 µM
O=c1cc(-c2cccc3c2Sc2ccccc2S3)oc(N2CCOCC2)c1	25.5 µM
COc1ccc(-c2cc(=O)c3cc(OC)ccc3[nH]2)cc1	> 100 µM
NCCOCCOCCNc1nc(-c2ccccc2)nc(N2CCN(c3ccccn3)CC2)n1	29.4 µM
Cc1ccc(/C(O)=C/C(=O)C(=O)NC23CC4CC(CC(C4)C2)C3)cc1	> 10 µM
CCOC(=O)C1(C(=O)OCC)OC(C)=NC1(C(=O)OC)C(=O)OC	> 100 µM
COC(=O)C(Cc1c[nH]c2ccccc12)NC(=O)c1ccc(-c2ccc(Cl)cc2Cl)o1 (configuration not stated)	> 100 µM

Value sought for every listed compound: TGI.
1. CC(C)C(=O)Nc1cc(C(F)(F)F)ccc1[N+](=O)[O-]
2. N#Cc1c(-c2ccc(Cl)cc2)[nH]c(=O)n(C2OC(CO)C(O)C(O)C2O)c1=O (configuration not stated)
3. COc1cc(NCCC2CCCCN2)c2ncccc2c1 (configuration not stated)
4. CCOC(=O)c1cc2/c(=C\c3ccc(N(C)C)cc3)c3ccccc3n2[n+]1C
5. O=C(Cc1ccc(F)c(F)c1)Nc1cc(C2(C(F)(F)F)CC2)nn1Cc1ccccc1
6. COc1ccccc1-c1cc(=O)c2cc3c(cc2[nH]1)OCO3
7. C#CCSc1cc(Cl)c(C)cc1S(=O)(=O)Nc1nc2ccccc2o1

Response:
["> 100 µM", "> 100 µM", "> 68.6 µM", "> 23.4 µM", "13.8 µM", "> 100 µM", "> 100 µM"]

---

test system: SK-MEL-5 melanoma; test: NCI tumour cell line growth inhibition, 48 h
reported_endpoint: TGI

// worked examples, TGI included
compound	TGI
CNC(=O)c1ccccc1Nc1nc(Nc2cc(OC)c(OC)c(OC)c2)ncc1Br	1.18 µM
[N-]=[N+]=NC(c1cn(C2CC(O)C(CO)O2)c(=O)[nH]c1=O)C(Cl)I (stereo not drawn)	> 100 µM
O=C(c1ccccc1)C(CN1CCCCC1)c1ccccc1 (stereo not drawn)	6.74 µM
NCCOCCOCCNc1nc(-c2ccccc2)nc(N2CCN(c3ccccn3)CC2)n1	20.9 µM
O=c1c(Br)cc2nc3ccccc3sc-2c1Br	> 100 µM

Parameter requested: TGI. Apply to each item below.
1. CCOC(=O)C1(C(=O)OCC)OC(C)=NC1(C(=O)OC)C(=O)OC
2. O=C(c1ccccc1)C1OC12C(=O)Nc1c(Cl)cc(Cl)cc12 (stereo not drawn)
3. O=C(O)CCC(N=Cc1nc(-c2ccccc2)oc1O)C(=O)O (stereo not drawn)

Response:
1: > 100 µM; 2: > 100 µM; 3: > 100 µM

Value sought for every listed compound: TGI.
1. O=C(Nc1ccncc1)C(=O)c1cn(S(=O)(=O)c2ccc(Cl)cc2)c2ccccc12
2. CC(=O)Nc1c(C)cc2c(nc3n2CCC3OC(C)=O)c1[N+](=O)[O-] (stereo not drawn)
3. COc1ccc(C2SCC(=O)N2NC(=O)c2ccc(NC(C)=O)cc2)c(OC)c1 (stereo not drawn)
4. Cc1ccc(/C(O)=C/C(=O)C(=O)NC23CC4CC(CC(C4)C2)C3)cc1
5. COc1cc(-c2cc(O)c(-c3ccc4ccccc4n3)c(=O)[nH]2)cc(OC)c1OC
6. S=C(Nc1ccc(-c2nc3ccccc3[nH]2)cc1)Nc1ccc(-c2nc3ccccc3[nH]2)cc1
7. CN1C(=O)C2(C=CC(O)CC2)c2ccccc21 (stereo not drawn)

Response:
1. 11.9 µM
2. > 100 µM
3. > 100 µM
4. > 10 µM
5. 62.6 µM
6. > 100 µM
7. > 100 µM

For every record below, what is its TGI?
1. N#CC(Cc1ccccc1)N(CCC1=CCCCC1)Cc1ccccc1 (stereo not drawn)
2. Nc1nnnn1CCO

Response:
["51.9 µM", "> 100 µM"]

For every item in the list below, what is its measured TGI?
1. O=C(O)CCSCc1ccccc1
2. COc1ccc(-c2cc(=O)c3cc(OC)ccc3[nH]2)cc1
3. O=C1c2ccccc2-c2nnc3c(c21)-c1ccccc1C3
4. O=C(NCCCO)c1cc(Cl)ccc1O
5. NC(Cc1ccc(N(CCCl)CCCl)cc1)C(=O)NC(CCC(=O)O)C(=O)O (stereo not drawn)

Response:
1. > 100 µM
2. > 100 µM
3. > 100 µM
4. 4.33 µM
5. > 100 µM

Prompt: Please give the measured TGI for this compound: COc1cc(C2c3cc4c(cc3OC(NNS(=O)(=O)c3ccc(C)cc3)C2C)OCO4)cc(OC)c1O (stereo not drawn)
Response: 25 µM
